- Test system: GABA receptor complex (GRC)
- test_name: [35S]TBPS binding in rat cerebral cortex P2 homogenate
- condition_details: maximum inhibition of [35S]TBPS binding
# key: entry, value: IMAX (maximum inhibition)
Answer in %, number only, no unit symbol.

Previously resolved entries follow.
INSERT INTO assay_data (compound, test_target, endpoint, reported_result) VALUES
  ('C#C[C@@]1(O)CC[C@@]2(C)[C@H](CC[C@@H]3[C@@H]2CC[C@]2(C)[C@@H](C(=O)CS(=O)(=O)CCCO)CC[C@@H]32)C1', 'GABA receptor complex (GRC)', 'IMAX (maximum inhibition)', 107),
  ('COCC1(O)CCC2(C)C(CCC3C2CCC2(C)C(OC)CCC32)C1 (stereo not shown)', 'GABA receptor complex (GRC)', 'IMAX (maximum inhibition)', 100),
  ('COC1CCC2C3CCC4CC(O)(C#CCCO)CCC4(C)C3CCC12C (stereo not drawn) [3β-(4′-Hydroxybutyn-1′-yl)-3α-hydroxy-17β-methoxy-5α-androst]', 'GABA receptor complex (GRC)', 'IMAX (maximum inhibition)', 104),
  ('C#C[C@@]1(O)CC[C@@]2(C)[C@H](CC[C@@H]3[C@@H]2CC[C@]2(C)[C@@H](OC)CC[C@@H]32)C1', 'GABA receptor complex (GRC)', 'IMAX (maximum inhibition)', 101),
  ('C#CC1(O)CCC2(C)C(CCC3C2CCC2(C)C(C(=O)C[S+]([O-])CCCO)CCC32)C1 (stereo not shown)', 'GABA receptor complex (GRC)', 'IMAX (maximum inhibition)', 107);

Quick check: IMAX (maximum inhibition) of CCCOC1CC2(C)C(CCC3C2CCC2(C)C(C(=O)COc4ccc([N+](C)(C)C)cc4)CCC32)CC1O (stereo not shown) ?
92

Quick check: IMAX (maximum inhibition) of COC1CCC2C3CCC4CC(O)(C#CCCO)CCC4(C)C3CCC12C (stereo not drawn) [3β-(4′-Hydroxybutyn-1′yl)-3α-hydroxy-17β-methoxy-5β-androsta] ?
105
